Measurement description: Binding affinity to bacterial Metallo-beta-lactamase IMP-1 (unknown origin) expressed in Escherichia coli BL21(DE3) cells assessed as inhibition constant
Design: species or system Bacteria
The following compounds are shown together with reported pKi values.
In simple prose, pKi is minus the logarithm base ten of a concentration in moles per litre.

Cc1oc(C)c(S(N)(=O)=O)c1C(=O)O
6.66

*Q* Look up and state reported pKi for CCc1c(C(=O)O)c(S(N)(=O)=O)c(CC)n1C
*A* 6.59

* * *

Experimental target: Metallo-beta-lactamase VIM-2 (Pseudomonas aeruginosa)
Measurement description: Binding affinity to Metallo-beta-lactamase VIM-2 assessed as inhibition constant
Measured quantity: Ki (nM)
Expressed in nM, but write only the number.

*Q* Return the recorded Ki value; entry: CCOC(=O)[C@]1(CS)N[C@@H](C(=O)O)C(C)(C)S1
*A* 1900

Where do the numbers come from? From ChEMBL document CHEMBL5356930.
